- Subject of test: T1, human CD47-Fc (human, UniProt Q08722 19-134)
- T1 construct: Leu19-Val134 is the natural numbering printed; also called human CD47-Fc receptor; human CD47-Fc (Biocad); not shown: Fc tag of the expression plasmid
- Assay summary: ELISA, CD47-Fc coated, VHH in E. coli supernatant, anti-myc detection, 450 nm
This listing pairs binders with measured OD units, initial screening for CD47-Fc.
Response body: numeric value in OD units, unit text excluded.

Binder: BCD106-02_L.Alecto.VHHSel2_MP1_B9_64 (VHH, Llama anti-CD47 VHH tested as E. coli culture supernatant; not shown: myc and His6 tags at the C-terminus of the VHH (pET-22)) VHH: DVQLVESGGGLVQPGGSLTLSCAASRNIFRINAMNWYRQAPGKRREWVAPITSEGITNYVDSVKGRFTITRDNAKNTMYLQMNSLKPEDTAVYYCNACLITASSEVYWGQGTLVTVSS
Unit spec: OD units
OD units, initial screening for CD47-Fc: 0.129

We next turn to a different binder, shown below.
Short answer for BCD106-02_L.Alecto.VHHSel2_MP1_F10_76 (VHH, Llama anti-CD47 VHH tested as E. coli culture supernatant; not shown: myc and His6 tags at the C-terminus of the VHH (pET-22)) VHH: DVQLVESGGGLVQPGGSLRLSCAASRNIFSINAMNWYRQAPGKRREWVAQITSEGITNYVDSVKGRFTITRDNAKNTMYLQMNSLKPEDTAVYYCNAFVITASSEVYWGQGTTVTVSS : OD units, initial screening for CD47-Fc was 0.213
